Each recorded value in this set is attributed to patent US10807952B2.

- target of assay: UniProt:P00746
- Sequence (P00746 26-253): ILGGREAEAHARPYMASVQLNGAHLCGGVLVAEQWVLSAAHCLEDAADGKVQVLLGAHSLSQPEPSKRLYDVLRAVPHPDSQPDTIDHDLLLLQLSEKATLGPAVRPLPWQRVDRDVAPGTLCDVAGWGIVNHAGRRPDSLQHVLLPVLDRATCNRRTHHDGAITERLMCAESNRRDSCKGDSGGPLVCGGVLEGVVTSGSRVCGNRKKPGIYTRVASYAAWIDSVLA
- experiment description: Human Factor D assay (Z-L-Lys-SBzl / DTNB, absorbance at 405 nm)
- Type: biochemical
- experimental parameters: Table 4; Human Factor D 80 nM, assay of Example 13
Collected IC50 values appear next to each entry.

[
  {
    "compound": "CC(=O)c1nn(CC(=O)N2C[C@H](F)C[C@H]2C(=O)Nc2cccc(-c3ccc4ncn(CCN)c4c3Cl)c2F)c2ccccc12 [Compound 84]",
    "target of assay": "UniProt:P00746",
    "readout name": "IC50",
    "observed value": "1000 to 10000 nM"
  }
]

In the following, a different compound is considered.
Form field: reported IC50 of CC(=O)c1nn(CC(=O)N2C[C@H](F)C[C@H]2C(=O)Nc2cccc(-c3ccc4sc(O)nc4c3)c2F)c2ccccc12 [Compound 103]
< 1000 nM
